Biological target: CHIP (Homo sapiens)
Construct: N-term truncated CHIP (also known as STUB1, Uniprot ID: Q9UNE7, residues 23-303); made in house; host or cells: E. coli BL21 CodonPlus
Sequence (Q9UNE7 23-303): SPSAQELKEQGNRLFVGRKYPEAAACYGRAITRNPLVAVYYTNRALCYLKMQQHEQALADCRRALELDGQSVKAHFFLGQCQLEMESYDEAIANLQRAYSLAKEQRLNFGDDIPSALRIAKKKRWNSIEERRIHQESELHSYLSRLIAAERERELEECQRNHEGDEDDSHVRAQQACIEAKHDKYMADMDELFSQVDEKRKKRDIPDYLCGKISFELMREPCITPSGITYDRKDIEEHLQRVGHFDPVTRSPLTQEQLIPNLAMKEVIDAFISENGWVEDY
Assay: Naive Library Presenter Screening (phage, NGS), CHIP
Format: binding
Conditions: CHIP target concentration 300 nM
Numbered stars: 1 amine (or outer) side, 2 acyl side, 3 side chain; on linkers, the order of the positions; unused ones are H or OH. Bridge positions count the residues as written; N and C are the ends. Ends that are not written are not given here. Phenylene(1,4-NHCOCH2)2 = O=C(C[*:1])Nc1ccc(NC(=O)C[*:2])cc1
measured-quantity: interaction data at Target Concentration 300
Respond numerically, and do not add a unit to the figure.

Lab note: measured interaction data at Target Concentration 300 of PCWSAWLACEL (linker 2-9 via Phenylene(1,4-NHCOCH2)2 (inferred)) was 130

get_value(item= PCYSAWIVCSD (linker 2-9 via Phenylene(1,4-NHCOCH2)2 (inferred)) , readout=interaction data at Target Concentration 300) returns 444

interaction data at Target Concentration 300 in this record for ICYNARLECE (linker 2-9 via Phenylene(1,4-NHCOCH2)2 (inferred)) : 16

For this sequence ( PCWNAWMVCSV (linker 2-9 via Phenylene(1,4-NHCOCH2)2 (inferred)) ), measured interaction data at Target Concentration 300 is 474

For PCWNAWLYCSN (linker 2-9 via Phenylene(1,4-NHCOCH2)2 (inferred)) the sequence record lists interaction data at Target Concentration 300 as 105

Note to self: interaction data at Target Concentration 300 recorded for ICYNAWVECE (linker 2-9 via Phenylene(1,4-NHCOCH2)2 (inferred)) was 21

// sample ICYNAWLECA (linker 2-9 via Phenylene(1,4-NHCOCH2)2 (inferred)) , its interaction data at Target Concentration 300 was 7

Record summary for ICYSAWLECE (linker 2-9 via Phenylene(1,4-NHCOCH2)2 (inferred)) : reported interaction data at Target Concentration 300 = 25

Lookup result for PMCSDAWLFCE (linker 3-10 via Phenylene(1,4-NHCOCH2)2 (inferred)) ; measured interaction data at Target Concentration 300: 74

Per the record, PCWDAWMLCTD (linker 2-9 via Phenylene(1,4-NHCOCH2)2 (inferred)) has interaction data at Target Concentration 300 of 632

Reference source: patent US20240376151A1
